System: gelfiltrierter Human-Thrombozyten
Experiment: Inhibition of aggregation of gel-filtered human platelets after ADP or thrombin stimulation
Format: cell-based
Details: platelet aggregation, thrombin-stimulated, read-out: IC50 (µM), Thrombin-stimuliert
test_readout: IC50 (µM)
Kindly answer with a numeric value in µM, unit omitted.

molecule=N=C(N)NCCC[C@@H]1NC(=S)N(CC(=O)N[C@@H](CC(=O)O)C(=O)N[C@H](C(=O)O)c2ccccc2)C1=O test_readout=IC50 result_value=0.1

Ask | // lookup IC50 for N=C(N)c1ccc(CC2NC(=S)N(CC(=O)N[C@@H](CC(=O)O)C(=O)N[C@H](C(=O)O)c3ccccc3)C2=O)cc1 (some centres unmarked)
Reply | 0.2

---

compounds and their reported Ki
Molecular target: Rezeptor (Glykoprotein IIb/IIIa) (Homo sapiens, UniProt P05106+P08514)
Construct: an intakten, gelfiltrierten Human-Thrombozyten; endogenous in cells; host or cells: intact, gel-filtered human platelets from donor blood, stimulated with ADP (10 µM)
Sequence (P08514 32-887 limits assumed): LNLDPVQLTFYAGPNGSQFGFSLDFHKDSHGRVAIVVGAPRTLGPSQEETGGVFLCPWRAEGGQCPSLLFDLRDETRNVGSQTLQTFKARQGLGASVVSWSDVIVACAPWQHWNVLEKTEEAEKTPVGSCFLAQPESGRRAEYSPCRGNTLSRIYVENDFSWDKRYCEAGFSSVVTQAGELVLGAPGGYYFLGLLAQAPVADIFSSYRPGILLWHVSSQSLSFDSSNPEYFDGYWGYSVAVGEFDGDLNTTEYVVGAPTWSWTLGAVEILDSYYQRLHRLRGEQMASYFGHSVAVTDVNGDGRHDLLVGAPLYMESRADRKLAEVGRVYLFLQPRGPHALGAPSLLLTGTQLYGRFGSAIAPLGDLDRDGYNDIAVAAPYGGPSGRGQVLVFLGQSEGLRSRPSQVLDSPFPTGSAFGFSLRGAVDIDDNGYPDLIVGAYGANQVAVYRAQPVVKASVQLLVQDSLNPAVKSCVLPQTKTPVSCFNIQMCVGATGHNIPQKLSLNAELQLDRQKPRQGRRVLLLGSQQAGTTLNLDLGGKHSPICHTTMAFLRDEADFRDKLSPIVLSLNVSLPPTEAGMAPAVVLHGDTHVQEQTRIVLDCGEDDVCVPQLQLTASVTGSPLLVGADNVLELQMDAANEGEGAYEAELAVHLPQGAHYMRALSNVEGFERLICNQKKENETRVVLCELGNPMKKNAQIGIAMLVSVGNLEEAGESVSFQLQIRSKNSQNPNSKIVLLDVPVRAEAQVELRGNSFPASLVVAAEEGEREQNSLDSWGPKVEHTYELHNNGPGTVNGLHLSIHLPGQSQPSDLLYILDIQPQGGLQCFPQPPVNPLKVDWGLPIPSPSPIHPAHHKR
Sequence (P08514 891-1039 partner limits assumed): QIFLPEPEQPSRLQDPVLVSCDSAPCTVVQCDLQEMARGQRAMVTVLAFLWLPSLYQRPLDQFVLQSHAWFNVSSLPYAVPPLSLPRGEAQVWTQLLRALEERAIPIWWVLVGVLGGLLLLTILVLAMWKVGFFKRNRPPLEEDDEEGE
Sequence (P05106 27-788): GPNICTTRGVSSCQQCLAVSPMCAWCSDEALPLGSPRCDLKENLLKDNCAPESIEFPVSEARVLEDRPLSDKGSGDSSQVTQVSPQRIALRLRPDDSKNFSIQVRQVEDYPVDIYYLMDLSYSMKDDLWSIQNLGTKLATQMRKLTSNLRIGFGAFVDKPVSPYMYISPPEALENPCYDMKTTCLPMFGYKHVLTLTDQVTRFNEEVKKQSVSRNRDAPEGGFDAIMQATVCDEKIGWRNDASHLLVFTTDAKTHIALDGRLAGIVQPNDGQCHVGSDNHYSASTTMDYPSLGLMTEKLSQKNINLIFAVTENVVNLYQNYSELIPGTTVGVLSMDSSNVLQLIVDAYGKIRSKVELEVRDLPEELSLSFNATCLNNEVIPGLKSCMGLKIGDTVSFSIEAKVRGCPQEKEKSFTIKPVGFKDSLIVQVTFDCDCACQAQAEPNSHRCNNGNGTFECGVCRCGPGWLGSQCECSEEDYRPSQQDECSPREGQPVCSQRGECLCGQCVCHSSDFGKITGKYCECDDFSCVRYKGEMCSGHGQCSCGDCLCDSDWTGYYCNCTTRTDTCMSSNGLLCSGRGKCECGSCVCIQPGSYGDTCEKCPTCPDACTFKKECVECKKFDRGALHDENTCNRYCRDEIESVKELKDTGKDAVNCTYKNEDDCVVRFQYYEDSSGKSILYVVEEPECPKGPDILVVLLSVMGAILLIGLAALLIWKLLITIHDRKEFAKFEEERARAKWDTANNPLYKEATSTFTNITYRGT
Assay: Inhibition of 125I-fibrinogen binding to its receptor on intact gel-filtered human platelets
Details: inhibition of 125I-fibrinogen binding after stimulation with ADP (10µM), read-out: Ki (µM), ADP stimuliert
Source text: Geprüft werden die Verbindungen vor allem auf ihre hemmende Wirkung bei der Blutplättchenaggregation und der Anhaftung von Fibrinogen an Blutplättchen. Verwendet werden gefiltrierte Blutplättchen aus humanem Spenderblut, die mit ADP oder Thrombin aktiviert werden. Geprüft wird die Hemmung der Bindung von Fibrinogen an seinen Rezeptor (Glykoprotein IIb/IIIa) an intakten, gelfiltrierten Human-Thrombozyten durch die erfindungsgemäßen Verbindungen. […]
# unit: µM | format: bare number

compound="N=C(N)c1ccc(CC2NC(=S)N(CC(=O)N[C@@H](CC(=O)O)C(=O)N[C@H](C(=O)O)c3ccccc3)C2=O)cc1 (some centres unmarked)" unit_abbrev=µM result_value=0.2

Let's switch to this compound now.
Ask | What measured Ki goes with "N=C(N)NCCC[C@@H]1NC(=S)N(CC(=O)N[C@@H](CC(=O)O)C(=O)N[C@H](C(=O)O)c2ccccc2)C1=O" ?
Reply | 0.07
